test system: P388; assay: Concentration required for 50% inhibition of incorporation of labeled uridine by P388 cells for the synthesis of RNA (in vitro); format: functional; conditions: Mus musculus, read-out: ED50 (the source's name)
reported.property: pEC50
On this scale, pEC50 is minus log10 of a concentration expressed in M (mol/L).

Annotate the compound `Cc1c2oc3c(C)ccc(C(=O)N[C@@H]4C(=O)N[C@H](C(C)C)C(=O)N5CCC[C@H]5C(=O)N(C)CC(=O)N(C)[C@@H](C(C)C)C(=O)O[C@@H]4C)c3nc-2c(C(=O)N[C@@H]2C(=O)N[C@H](C(C)C)C(=O)N3CCC[C@H]3C(=O)N(C)CC(=O)N(C)[C@@H](C(C)C)C(=O)O[C@@H]2C)c(NCCCCCCCCCCN)c1=O` with its measured pEC50. 6.15

Annotate the compound `CCOc1cc(C(=O)N[C@@H]2C(=O)N[C@H](C(C)C)C(=O)N3CCC[C@H]3C(=O)N(C)CC(=O)N(C)[C@@H](C(C)C)C(=O)O[C@@H]2C)c2nc3c(C(=O)N[C@@H]4C(=O)N[C@H](C(C)C)C(=O)N5CCC[C@H]5C(=O)N(C)CC(=O)N(C)[C@@H](C(C)C)C(=O)O[C@@H]4C)c(N)c(=O)c(C)c-3oc2c1C` with its measured pEC50. 6.82

---

system: P388; assay: Median survival time of the P388 cells implanted CDF1 male mice in vivo; format: functional, Mus musculus
Assignment: determine reported MST for the given compounds.
# number then unit; no other words

Annotate the compound `CCCCCCOc1cc(C(=O)N[C@@H]2C(=O)N[C@H](C(C)C)C(=O)N3CCC[C@H]3C(=O)N(C)CC(=O)N(C)[C@@H](C(C)C)C(=O)O[C@@H]2C)c2nc3c(C(=O)N[C@@H]4C(=O)N[C@H](C(C)C)C(=O)N5CCC[C@H]5C(=O)N(C)CC(=O)N(C)[C@@H](C(C)C)C(=O)O[C@@H]4C)c(N)c(=O)c(C)c-3oc2c1C` with its measured MST. 13 days

Annotate the compound `CCCCCCCCCNc1c(C(=O)N[C@@H]2C(=O)N[C@H](C(C)C)C(=O)N3CCC[C@H]3C(=O)N(C)CC(=O)N(C)[C@@H](C(C)C)C(=O)O[C@@H]2C)c2nc3c(C(=O)N[C@@H]4C(=O)N[C@H](C(C)C)C(=O)N5CCC[C@H]5C(=O)N(C)CC(=O)N(C)[C@@H](C(C)C)C(=O)O[C@@H]4C)ccc(C)c3oc-2c(C)c1=O` with its measured MST. 10 days

---

Assignment: determine reported Optimal dose for the given molecules.
system: P388; assay: Optimal dose for antitumor activity was measured in P388 cells of CDF1 male mice in vivo; assay type: functional, Mus musculus

Annotate the molecule `Cc1c2oc3c(C)ccc(C(=O)N[C@@H]4C(=O)N[C@H](C(C)C)C(=O)N5CCC[C@H]5C(=O)N(C)CC(=O)N(C)[C@@H](C(C)C)C(=O)O[C@@H]4C)c3nc-2c(C(=O)N[C@@H]2C(=O)N[C@H](C(C)C)C(=O)N3CCC[C@H]3C(=O)N(C)CC(=O)N(C)[C@@H](C(C)C)C(=O)O[C@@H]2C)c(NCCCCCCCCN)c1=O` with its measured Optimal dose. 1.8 mg/kg

Annotate the molecule `Cc1c2oc3c(C)c(OC(=O)c4ccccc4)cc(C(=O)N[C@@H]4C(=O)N[C@H](C(C)C)C(=O)N5CCC[C@H]5C(=O)N(C)CC(=O)N(C)[C@@H](C(C)C)C(=O)O[C@@H]4C)c3nc-2c(C(=O)N[C@@H]2C(=O)N[C@H](C(C)C)C(=O)N3CCC[C@H]3C(=O)N(C)CC(=O)N(C)[C@@H](C(C)C)C(=O)O[C@@H]2C)c(N)c1=O` with its measured Optimal dose. 0.75 mg/kg

Annotate the molecule `CCOc1cc(C(=O)N[C@@H]2C(=O)N[C@H](C(C)C)C(=O)N3CCC[C@H]3C(=O)N(C)CC(=O)N(C)[C@@H](C(C)C)C(=O)O[C@@H]2C)c2nc3c(C(=O)N[C@@H]4C(=O)N[C@H](C(C)C)C(=O)N5CCC[C@H]5C(=O)N(C)CC(=O)N(C)[C@@H](C(C)C)C(=O)O[C@@H]4C)c(N)c(=O)c(C)c-3oc2c1C` with its measured Optimal dose. 0.45 mg/kg

---

tested on: Calf thymus DNA; assay: Apparent binding constant calf thymus DNA-drug complex; type: nucleic-acid assay; conditions: Bos taurus
reported.property: K app (M⁻¹)
Give the value, in units of M⁻¹, as a plain number.

Annotate the compound `Cc1c2oc3c(C)c(O)c(N)c(C(=O)N[C@H]4C(=O)N[C@@H](C(C)C)C(=O)N5CCC[C@H]5C(=O)N(C)CC(=O)N(C)[C@H](C(C)C)C(=O)O[C@H]4C)c3nc-2c(C(=O)N[C@@H]2C(=O)N[C@H](C(C)C)C(=O)N3CCC[C@@H]3C(=O)N(C)CC(=O)N(C)[C@@H](C(C)C)C(=O)O[C@@H]2C)c/c1=N/Cc1ccccc1` with its measured K app. 5.8e+06

Annotate the compound `CCCCOc1cc(C(=O)N[C@@H]2C(=O)N[C@H](C(C)C)C(=O)N3CCC[C@@H]3C(=O)N(C)CC(=O)N(C)[C@@H](C(C)C)C(=O)O[C@@H]2C)c2nc3c(C(=O)N[C@H]4C(=O)N[C@@H](C(C)C)C(=O)N5CCC[C@H]5C(=O)N(C)CC(=O)N(C)[C@H](C(C)C)C(=O)O[C@H]4C)c(N)c(=O)c(C)c-3oc2c1C` with its measured K app. 1.1e+06

Annotate the compound `CCOc1cc(C(=O)N[C@@H]2C(=O)N[C@H](C(C)C)C(=O)N3CCC[C@@H]3C(=O)N(C)CC(=O)N(C)[C@@H](C(C)C)C(=O)O[C@@H]2C)c2nc3c(C(=O)N[C@H]4C(=O)N[C@@H](C(C)C)C(=O)N5CCC[C@H]5C(=O)N(C)CC(=O)N(C)[C@H](C(C)C)C(=O)O[C@H]4C)c(N)c(=O)c(C)c-3oc2c1C` with its measured K app. 6.9e+06

---

species on record: Bos taurus; assay: Thermal denaturation (deltaTm) of compound against calf thymus DNA was measured; type: ADME; settings: cattle, in vitro
Labelling: Delta Tm reported below 6 becomes 1; at or above becomes 0.

Strictly below 6: is that where Delta Tm of `CCCCCCOc1cc(C(=O)N[C@@H]2C(=O)N[C@H](C(C)C)C(=O)N3CCC[C@H]3C(=O)N(C)CC(=O)N(C)[C@@H](C(C)C)C(=O)O[C@@H]2C)c2nc3c(C(=O)N[C@@H]4C(=O)N[C@H](C(C)C)C(=O)N5CCC[C@H]5C(=O)N(C)CC(=O)N(C)[C@@H](C(C)C)C(=O)O[C@@H]4C)c(N)c(=O)c(C)c-3oc2c1C` sits? 1

Strictly below 6: is that where Delta Tm of `Cc1c2oc3c(C)c(O)c(N)c(C(=O)N[C@@H]4C(=O)N[C@H](C(C)C)C(=O)N5CCC[C@H]5C(=O)N(C)CC(=O)N(C)[C@@H](C(C)C)C(=O)O[C@@H]4C)c3nc-2c(C(=O)N[C@@H]2C(=O)N[C@H](C(C)C)C(=O)N3CCC[C@H]3C(=O)N(C)CC(=O)N(C)[C@@H](C(C)C)C(=O)O[C@@H]2C)c/c1=N/Cc1ccc(Cl)c(Cl)c1` sits? 0

Strictly below 6: is that where Delta Tm of `Cc1c2oc3c(C)c(OCc4ccc([N+](=O)[O-])cc4)cc(C(=O)N[C@@H]4C(=O)N[C@H](C(C)C)C(=O)N5CCC[C@H]5C(=O)N(C)CC(=O)N(C)[C@@H](C(C)C)C(=O)O[C@@H]4C)c3nc-2c(C(=O)N[C@@H]2C(=O)N[C@H](C(C)C)C(=O)N3CCC[C@H]3C(=O)N(C)CC(=O)N(C)[C@@H](C(C)C)C(=O)O[C@@H]2C)c(N)c1=O` sits? 1

Strictly below 6: is that where Delta Tm of `Cc1c2oc3c(C)c(O)c(N)c(C(=O)N[C@@H]4C(=O)N[C@H](C(C)C)C(=O)N5CCC[C@H]5C(=O)N(C)CC(=O)N(C)[C@@H](C(C)C)C(=O)O[C@@H]4C)c3nc-2c(C(=O)N[C@@H]2C(=O)N[C@H](C(C)C)C(=O)N3CCC[C@H]3C(=O)N(C)CC(=O)N(C)[C@@H](C(C)C)C(=O)O[C@@H]2C)c/c1=N/Cc1ccc[nH]1` sits? 0

Strictly below 6: is that where Delta Tm of `CCCCOc1cc(C(=O)N[C@@H]2C(=O)N[C@H](C(C)C)C(=O)N3CCC[C@H]3C(=O)N(C)CC(=O)N(C)[C@@H](C(C)C)C(=O)O[C@@H]2C)c2nc3c(C(=O)N[C@@H]4C(=O)N[C@H](C(C)C)C(=O)N5CCC[C@H]5C(=O)N(C)CC(=O)N(C)[C@@H](C(C)C)C(=O)O[C@@H]4C)c(N)c(=O)c(C)c-3oc2c1C` sits? 1

Strictly below 6: is that where Delta Tm of `Cc1c2oc3c(C)ccc(C(=O)N[C@@H]4C(=O)N[C@H](C(C)C)C(=O)N5CCC[C@H]5C(=O)N(C)CC(=O)N(C)[C@@H](C(C)C)C(=O)O[C@@H]4C)c3nc-2c(C(=O)N[C@@H]2C(=O)N[C@H](C(C)C)C(=O)N3CCC[C@H]3C(=O)N(C)CC(=O)N(C)[C@@H](C(C)C)C(=O)O[C@@H]2C)c(NCCCN)c1=O` sits? 0

Strictly below 6: is that where Delta Tm of `Cc1c2oc3c(C)ccc(C(=O)N[C@@H]4C(=O)N[C@H](C(C)C)C(=O)N5CCC[C@H]5C(=O)N(C)CC(=O)N(C)[C@@H](C(C)C)C(=O)O[C@@H]4C)c3nc-2c(C(=O)N[C@@H]2C(=O)N[C@H](C(C)C)C(=O)N3CCC[C@H]3C(=O)N(C)CC(=O)N(C)[C@@H](C(C)C)C(=O)O[C@@H]2C)c(NCCCCN)c1=O` sits? 1

Strictly below 6: is that where Delta Tm of `Cc1c2oc3c(C)c(O)c(N)c(C(=O)N[C@@H]4C(=O)N[C@H](C(C)C)C(=O)N5CCC[C@H]5C(=O)N(C)CC(=O)N(C)[C@@H](C(C)C)C(=O)O[C@@H]4C)c3nc-2c(C(=O)N[C@@H]2C(=O)N[C@H](C(C)C)C(=O)N3CCC[C@H]3C(=O)N(C)CC(=O)N(C)[C@@H](C(C)C)C(=O)O[C@@H]2C)cc1=O` sits? 0
